All values here come from paper PMC4104309.

TARGET_OF_ASSAY: human INS-like growth factor receptor (IGFR) (Homo sapiens)
Sequence (P08069 with tags, fused parts or gaps): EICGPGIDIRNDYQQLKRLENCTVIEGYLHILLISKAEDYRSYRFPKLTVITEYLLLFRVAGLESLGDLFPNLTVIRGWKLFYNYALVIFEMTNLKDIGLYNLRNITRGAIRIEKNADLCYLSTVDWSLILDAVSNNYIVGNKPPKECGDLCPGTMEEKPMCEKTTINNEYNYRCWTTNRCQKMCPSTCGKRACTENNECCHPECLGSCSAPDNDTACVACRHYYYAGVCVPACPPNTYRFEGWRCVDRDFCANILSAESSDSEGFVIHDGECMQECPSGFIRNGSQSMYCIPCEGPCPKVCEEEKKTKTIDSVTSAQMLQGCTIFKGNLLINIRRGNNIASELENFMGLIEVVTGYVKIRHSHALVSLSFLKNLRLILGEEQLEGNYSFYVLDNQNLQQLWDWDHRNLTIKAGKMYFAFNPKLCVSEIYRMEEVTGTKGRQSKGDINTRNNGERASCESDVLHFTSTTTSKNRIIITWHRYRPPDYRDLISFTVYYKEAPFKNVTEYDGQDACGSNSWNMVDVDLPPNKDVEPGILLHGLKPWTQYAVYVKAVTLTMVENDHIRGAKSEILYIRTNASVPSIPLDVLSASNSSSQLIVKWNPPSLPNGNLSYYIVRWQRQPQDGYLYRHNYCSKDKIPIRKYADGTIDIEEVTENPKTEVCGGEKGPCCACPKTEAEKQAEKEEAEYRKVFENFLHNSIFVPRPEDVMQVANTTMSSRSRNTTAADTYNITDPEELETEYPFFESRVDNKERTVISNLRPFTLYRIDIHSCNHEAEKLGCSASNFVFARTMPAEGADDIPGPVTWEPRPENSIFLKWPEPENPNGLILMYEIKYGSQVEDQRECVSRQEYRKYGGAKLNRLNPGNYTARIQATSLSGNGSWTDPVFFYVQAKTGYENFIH
EXPERIMENT_DESCRIPTION: UV spectroscopy (serial addition) binding of estradiol to IGFR
TEST_PARAMETERS: human recombinant IGFR, biphasic, read-out: Binding to IGFR, high affinity binding
pKd: −log10 of the molar value.
PROPERTY_LABEL: pKd

# MOLECULE, VALUE_REPORTED
measured = [
    ("C[C@]12CC[C@@H]3c4ccc(O)cc4CC[C@H]3[C@@H]1CC[C@@H]2O [17β-Estradiol (E2), 17β-Estradiol]", "~7.00"),
]

* * *

pKd, IR β 897–916 peptide of the human insulin receptor (Homo sapiens, UniProt P06213), per-entry values.
pKd: −log10 of the molar value.

# MOLECULE, pKd
rows = [
    ("C[C@]12CC[C@@H]3c4ccc(O)cc4CC[C@H]3[C@@H]1C[C@@H](O)[C@@H]2O [Estriol]", "< 3.30"),
    ("C[C@]12CCC(=O)C=C1CC[C@@H]1[C@@H]2CC[C@]2(C)C(=O)CC[C@@H]12 [Andro-stenedione, 4-andro-stenedione]", "< 3.30"),
    ("CC(=O)[C@H]1CC[C@H]2[C@@H]3CCC4=CC(=O)CC[C@]4(C)[C@H]3CC[C@]12C [Progesterone]", "< 3.30"),
    ("CC(C)CCC[C@@H](C)[C@H]1CC[C@H]2[C@@H]3CC=C4C[C@@H](O)CC[C@]4(C)[C@H]3CC[C@]12C [Cholesterol]", "< 3.30"),
    ("C[C@]12CC[C@@H]3c4ccc(O)cc4CC[C@H]3[C@@H]1CC[C@@H]2O [17β-Estradiol (E2), 17β-Estradiol]", 6.11),
    ("C[C@]12CC[C@@H]3c4ccc(O)cc4CC[C@H]3[C@@H]1CCC2=O [Estrone]", "< 3.30"),
]

* * *

Each item that follows carries a reported Kd.
TARGET_OF_ASSAY: IR α 424–441 peptide of the human insulin receptor (Homo sapiens)
Construct: IR α 424–441; made in house; host or cells: chemical peptide synthesis (Michigan State University facility)
EXPERIMENT_DESCRIPTION: UV spectroscopy binding to insulin receptor peptide IR α 424–441
TEST_PARAMETERS: UV spectroscopy, peptide 100 nM in pH 7.4 phosphate buffer, 30 min room temperature, duplicates averaged
Description: Humulin R was obtained from Lilly.
PROPERTY_LABEL: Kd

# MOLECULE, PROPERTY_LABEL, VALUE_REPORTED
rows = [
    ("C[C@]12CC[C@@H]3c4ccc(O)cc4CC[C@H]3[C@@H]1C[C@@H](O)[C@@H]2O", "Kd", "380 µM"),
    ("CC(=O)[C@H]1CC[C@H]2[C@@H]3CC=C4C[C@@H](O)CC[C@]4(C)[C@H]3CC[C@]12C", "Kd", "> 500 µM"),
    ("C[C@]12CC[C@@H]3c4ccc(O)cc4CC[C@H]3[C@@H]1CCC2=O", "Kd", "> 500 µM"),
    ("C[C@]12CC[C@@H]3c4ccc(O)cc4CC[C@H]3[C@@H]1CC[C@@H]2O [17β-Estradiol (E2), 17β-Estradiol]", "Kd", "> 500 µM"),
]
